Where do these numbers come from? They come from ChEMBL document CHEMBL1141865.

assay: Oral bioavailability in rat; type: ADME, organism-based; details: in vivo
Quantity: bioavailability (%)
Report the value in % with no unit label.

Problem: Return reported bioavailability; argument: Cn1c(-c2ccccc2C(F)(F)F)nnc1C12CCC(c3nc(-c4ccc(F)cc4)no3)(CC1)CC2
Solution: 83
